# subject of test: human glucagon receptor (GCGR), expressed on CHO-K1 cells (human, UniProt P47871 26-477)
# Sequence (P47871 26-477): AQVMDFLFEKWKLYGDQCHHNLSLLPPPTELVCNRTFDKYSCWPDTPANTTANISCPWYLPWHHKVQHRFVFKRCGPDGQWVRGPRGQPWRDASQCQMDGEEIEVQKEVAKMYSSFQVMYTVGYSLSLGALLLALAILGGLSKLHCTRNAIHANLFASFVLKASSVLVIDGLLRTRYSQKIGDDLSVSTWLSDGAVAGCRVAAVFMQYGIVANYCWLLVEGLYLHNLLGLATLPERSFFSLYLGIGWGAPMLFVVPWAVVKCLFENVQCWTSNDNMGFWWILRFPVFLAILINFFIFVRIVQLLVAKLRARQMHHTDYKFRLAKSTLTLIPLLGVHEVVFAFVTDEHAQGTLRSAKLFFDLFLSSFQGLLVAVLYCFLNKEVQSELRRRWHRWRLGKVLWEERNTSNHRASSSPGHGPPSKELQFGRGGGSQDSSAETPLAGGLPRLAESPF
# procedure summary: cell-based or functional assay
Numbered stars: 1 amine (or outer) side, 2 acyl side, 3 side chain; on linkers, the order of the positions; unused ones are H or OH. Square brackets hold non-standard residues; d marks the D form. Primed or numbered codes have the meaning given here. Side chains are listed from the residue outwards. Ends that are not written are not given here. * marks the point of attachment. C18″ = C18 fatty acid moiety (of 2OEG-γGlu-C18, K*); γGlu = O=C(O)[C@H](CCC(=O)[*:2])N[*:1]; AEEA = NCCOCCOCC(=O)O; Aib = CC(C)(N)C(=O)O
The entries below are paired with their reported Ratio vs. GLP-1R.
Provide a numeric answer; units are not to be included.

Reference set (2 entries):
{"binder": "Y[Aib]QGTFTSDYSK([AEEA-AEEA-γGlu-C18″])YLDYMMARDFVQWLIEGGPSSGAPPPS-NH2 [Peptide No. 5-1D]", "Ratio vs. GLP-1R": 36}
{"binder": "Y[Aib]QGTFTSDYSK([AEEA-AEEA-γGlu-C18″])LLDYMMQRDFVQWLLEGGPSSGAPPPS-NH2 [Peptide No. 5-3D]", "Ratio vs. GLP-1R": 9}

Next item in the queue.
Quick one: Ratio vs. GLP-1R of Y[Aib]QGTFTSDYSKYLDYK([AEEA-AEEA-γGlu-C18″])MARDFVQWLIEGGPSSGAPPPS-NH2 [Peptide No. 5-1F] ? 8250
